target: TGFBR2 (Homo sapiens, UniProt P37173); construct: purchased Reaction Biology Corporation; test: HotSpot kinase assay; format: biochemical; conditions: read-out: IC50 (M) of Control Compound
Sequence (P37173 23-567): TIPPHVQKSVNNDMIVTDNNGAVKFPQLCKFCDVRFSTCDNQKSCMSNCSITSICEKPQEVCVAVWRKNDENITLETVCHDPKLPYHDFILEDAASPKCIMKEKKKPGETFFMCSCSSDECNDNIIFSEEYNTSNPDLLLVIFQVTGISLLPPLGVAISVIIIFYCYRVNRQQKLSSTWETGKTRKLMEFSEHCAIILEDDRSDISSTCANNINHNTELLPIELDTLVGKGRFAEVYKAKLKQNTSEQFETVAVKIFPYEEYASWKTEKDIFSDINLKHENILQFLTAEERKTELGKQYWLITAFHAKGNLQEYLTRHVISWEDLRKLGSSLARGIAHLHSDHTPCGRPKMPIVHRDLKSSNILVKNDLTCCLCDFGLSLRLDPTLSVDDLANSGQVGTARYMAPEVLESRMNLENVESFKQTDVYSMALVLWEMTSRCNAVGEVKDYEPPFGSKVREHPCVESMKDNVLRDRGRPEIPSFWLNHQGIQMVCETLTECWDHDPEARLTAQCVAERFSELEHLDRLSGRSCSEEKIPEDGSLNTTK

compound: c1ccc2c(-c3cnn4cc(-c5ccc(N6CCNCC6)cc5)cnc34)ccnc2c1 [LDN193189, reference compound]
IC50 (M): 1.09e-07

----------
biological target: EIF2AK1 (Homo sapiens, UniProt Q9BQI3); construct: purchased Reaction Biology Corporation; assay: HotSpot kinase assay; format: biochemical; conditions: read-out: IC50 (M) of Control Compound
Sequence (Q9BQI3 whole entry): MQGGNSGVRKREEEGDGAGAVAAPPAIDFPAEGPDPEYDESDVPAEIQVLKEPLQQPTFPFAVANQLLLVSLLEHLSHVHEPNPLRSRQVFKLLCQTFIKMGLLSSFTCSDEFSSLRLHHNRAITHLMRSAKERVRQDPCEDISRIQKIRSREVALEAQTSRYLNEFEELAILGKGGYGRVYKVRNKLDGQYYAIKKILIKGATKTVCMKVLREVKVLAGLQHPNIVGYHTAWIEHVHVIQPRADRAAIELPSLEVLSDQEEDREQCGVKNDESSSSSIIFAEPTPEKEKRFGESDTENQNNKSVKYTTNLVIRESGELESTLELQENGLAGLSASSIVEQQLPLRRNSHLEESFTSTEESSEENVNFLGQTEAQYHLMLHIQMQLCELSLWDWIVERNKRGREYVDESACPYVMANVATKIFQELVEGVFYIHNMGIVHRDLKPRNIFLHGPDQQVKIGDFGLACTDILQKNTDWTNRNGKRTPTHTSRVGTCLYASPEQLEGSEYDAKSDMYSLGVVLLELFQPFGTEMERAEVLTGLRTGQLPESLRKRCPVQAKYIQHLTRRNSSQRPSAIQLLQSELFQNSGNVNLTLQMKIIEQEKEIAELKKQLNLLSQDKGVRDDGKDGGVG

compound: Cn1cc(-c2ccc3c(c2)CCN3C(=O)Cc2cccc(C(F)(F)F)c2)c2c(N)ncnc21 [GSK-2606414, reference compound]
IC50 / M: 9.62e-08

These entries and their values trace back to paper PMC9569420.
